target: intracellular phosphorylation of EGFR (Tyr1068) in PC-9 cells (Ex19Del) (Homo sapiens, UniProt P00533, DEL746-750); test: PC-9 pEGFR AlphaLISA assay; details: 4 hours compound incubation, read-out: Ext pEGFR_PC-9 Ex19Del IC50
Sequence (P00533 with tags, fused parts or gaps DEL746-750): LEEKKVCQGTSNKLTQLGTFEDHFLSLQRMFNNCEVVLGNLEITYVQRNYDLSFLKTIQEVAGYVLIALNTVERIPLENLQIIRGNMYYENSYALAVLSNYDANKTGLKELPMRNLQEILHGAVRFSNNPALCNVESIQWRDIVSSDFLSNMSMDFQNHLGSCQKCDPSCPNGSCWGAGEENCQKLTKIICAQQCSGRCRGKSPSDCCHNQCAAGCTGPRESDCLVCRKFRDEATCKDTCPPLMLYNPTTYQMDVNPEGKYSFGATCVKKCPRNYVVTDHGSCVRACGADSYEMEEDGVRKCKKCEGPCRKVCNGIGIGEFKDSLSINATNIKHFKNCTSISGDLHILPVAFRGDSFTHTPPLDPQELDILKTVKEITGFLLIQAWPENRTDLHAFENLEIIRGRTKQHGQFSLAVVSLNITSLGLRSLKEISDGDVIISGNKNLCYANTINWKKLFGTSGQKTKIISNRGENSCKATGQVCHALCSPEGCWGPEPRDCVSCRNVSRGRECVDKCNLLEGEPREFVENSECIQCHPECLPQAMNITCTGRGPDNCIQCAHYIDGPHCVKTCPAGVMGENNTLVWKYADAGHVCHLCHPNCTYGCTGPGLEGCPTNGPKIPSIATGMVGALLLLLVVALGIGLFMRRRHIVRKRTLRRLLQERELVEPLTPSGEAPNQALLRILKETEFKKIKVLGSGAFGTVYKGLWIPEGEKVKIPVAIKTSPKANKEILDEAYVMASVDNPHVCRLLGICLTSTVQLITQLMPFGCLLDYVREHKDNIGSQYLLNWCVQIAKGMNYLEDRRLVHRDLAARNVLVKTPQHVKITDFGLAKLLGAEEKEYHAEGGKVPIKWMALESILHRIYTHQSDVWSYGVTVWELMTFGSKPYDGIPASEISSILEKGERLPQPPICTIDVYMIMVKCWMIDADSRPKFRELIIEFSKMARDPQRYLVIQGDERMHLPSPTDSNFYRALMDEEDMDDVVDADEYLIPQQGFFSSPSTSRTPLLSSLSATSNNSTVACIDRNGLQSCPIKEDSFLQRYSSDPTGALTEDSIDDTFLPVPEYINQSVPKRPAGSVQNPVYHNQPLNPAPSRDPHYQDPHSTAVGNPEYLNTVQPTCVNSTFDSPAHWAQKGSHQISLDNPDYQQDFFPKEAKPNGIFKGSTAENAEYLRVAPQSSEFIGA
pIC50: −log10 of the molar value.
property_measured: pIC50

# example entries with known answers
| molecule | result |
| --- | --- |
| CN1CC[C@H](Oc2cc(-c3cnn(C)c3)cc3ncnc(Nc4ccc5ncccc5c4F)c23)C1=O [Example 25] | 7.30 to 8.00 |
| CN1CCC[C@@H](Oc2cc(-c3cnn(C)c3)cc3ncnc(Nc4ccc5ncccc5c4F)c23)C1 [Example 36] | 7.30 to 8.00 |

What value of pIC50 has been recorded for this entry: C[C@H](CN(C)C)Oc1cc(N2CCn3cncc3C2)cc2ncnc(Nc3ccc4ncccc4c3F)c12 [Example 90]
≥ 8.00

For C[C@H](Oc1cc(-c2cnn(C)c2)cc2ncnc(Nc3ccc4ncccc4c3F)c12)[C@@H]1CCCN1C (single isomer, unassigned) [Example 145] then?
< 7.30

For C[C@@H](Oc1cc(N2CCC(N(C)C)CC2)cc2ncnc(Nc3ccc4ncccc4c3F)c12)C1COC1 [Example 78] then?
≥ 8.00

For C[C@H](CN(C)C)Oc1cc(-c2cnn(C)c2)cc2ncnc(Nc3ccc4nnccc4c3F)c12 [Example 41] then?
< 7.30

For COc1cc(O[C@H](C)CN(C)C)c2c(Nc3ccc4ncccc4c3F)ncnc2c1 [Example 57] then?
7.30 to 8.00
